Biological target: T1, human CD70 expressed on the surface of cells (human, UniProt P32970 1-193)
T1 sequence (looked up): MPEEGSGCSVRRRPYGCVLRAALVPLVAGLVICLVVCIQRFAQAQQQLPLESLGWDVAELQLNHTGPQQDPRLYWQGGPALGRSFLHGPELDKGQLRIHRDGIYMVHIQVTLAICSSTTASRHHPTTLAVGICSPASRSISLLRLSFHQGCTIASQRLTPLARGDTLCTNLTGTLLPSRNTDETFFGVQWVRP
Test: cell-based or functional assay
For each of the binders below, state its Raji co-culture assay IC50 relative to 27B3.

Bench note: what Raji co-culture assay IC50 relative to 27B3 did 35G2 mAb (full-length human IgG1, HEK293) (antibody, V domains shown) VH: EVQLVESGGGLVQPGGSLRLSCAASGFTFSVYYMNWVRQAPGKGLEWVSDINNEGGTTYYADSVKGRFTISRDNAKNTLYLQMNSLKPEDTAVYYCARDAGYSNHVPIFDSWGQGTLVTVSS VL: QTVVTQEPSFSVSPGGTVTLTCGLKSGSVTSTNFPTWYQQTPGQAPRLLIYNTNSRHSGVPDRFSGSILGNKAALTITGAQADDEADYFCALFISNPSVEFGGGTQLTVLG show? 1.4 fold of 27B3

And 41D12 mAb (full-length human IgG1, HEK293) (antibody, V domains shown) VH: EVQLVESGGGLVQPGGSLRLSCAASGFTFSVYYMNWVRQAPGKGLEWVSDINNEGGTTYYADSVKGRFTISRDNSKNSLYLQMNSLRAEDTAVYYCARDAGYSNHVPIFDSWGQGTLVTVSS VL: QAVVTQEPSLTVSPGGTVTLTCGLKSGSVTSDNFPTWYQQTPGQAPRLLIYNTNTRHSGVPDRFSGSILGNKAALTITGAQADDEAEYFCALFISNPSVEFGGGTQLTVLG ? 1.2 fold of 27B3

Thanks! And 53H1 mAb (full-length human IgG1, HEK293) (antibody, V domains shown) VH: EVQLVESGGGLVQPGGSLRLSCAASGFTFSVYYMNWVRQAPGKGLEWVSDINNEGGTTYYADSVKGRFTISRDNSKNSLYLQMNSLRAEDTAVYYCARDAGYSNHVPIFDSWGQGTLVTVSS VL: QTVVTQEPSFSVSPGGTVTLTCGLKSGSVTSDNFPTWYQQTPGQAPRLLIYNTNTRHSGVPDRFSGSILGNKAALTITGAQADDEAEYFCALFISNPSVEFGGGTQLTVLG ? 1.6 fold of 27B3

What would you report for 40F1 mAb (full-length human IgG1, HEK293) (antibody, V domains shown) VH: EVQLVESGGGLVQPGGSLRLSCAASGFTFSVYYMNWVRQAPGKGLEWVSDINNEGGATYYADSVKGRFTISRDNSKNSLYLQMNSLRAEDTAVYYCARDAGYSNHVPIFDSWGQGTQVTVSS VL: QAVVTQEPSFSVSPGGTVTLTCGLKSGSVTSDNFPTWYQQTPGQAPRLLIYNTNTRHSGVPDRFSGSILGNKAALTITGAQADDEAEYFCALFISNPSVEFGGGTQLTVLG ? 1.8 fold of 27B3

Next entry: 53A2 mAb (full-length human IgG1, HEK293) (antibody, V domains shown) VH: EVQLVESGGGLVQPGGSLRLSCAASGFTFSVYYMNWVRQAPGKGLEWVSDINNEGGTTYYADSVKGRFTISRDNSKNSLYLQMNSLRAEDTAVYYCARDAGYSNHVPIFDSWGQGTLVTVSS VL: QAVVTQEPSFSVSPGGTVTLTCGLKSGSVTSDNFPTWYQQTPGQAPRLLIYNTNTRHSGVPDRFSGSILGNKAALTITGAQADDEAEYFCALFISNPSVEFGGGTQLTVLG 0.8 fold of 27B3

Now the same for 27B3 chimeric llama-human mAb (antibody, human IgG1, V domains shown, also called SIMPLE antibody 27B3; mAb 27B3) VH: EVQLVESGGGLVQPGGSLRLSCAASGFTFSVYYMNWVRQAPGKGLEWVSDINNEGGTTYYADSVKGRFTISRDNAKNTLTLQMNSLKPEDTALYYCVRDAGYSNHVPIFDSWGQGTQVIVAS VL: QAVVTQEPSLTVSPGGTVTLTCGLKSGSVTSTNFPTWYQQTPGQAPRLLIYNTNTRHSGVPSRFSGSISENKAALTITGAQPEDEAEYFCALFISNPSVEFGGGTQLTVLS 1 fold of 27B3
